- MEASUREMENT_TARGET: human TLR8 (Homo sapiens)
- Sequence (Q9NR97 27-1041): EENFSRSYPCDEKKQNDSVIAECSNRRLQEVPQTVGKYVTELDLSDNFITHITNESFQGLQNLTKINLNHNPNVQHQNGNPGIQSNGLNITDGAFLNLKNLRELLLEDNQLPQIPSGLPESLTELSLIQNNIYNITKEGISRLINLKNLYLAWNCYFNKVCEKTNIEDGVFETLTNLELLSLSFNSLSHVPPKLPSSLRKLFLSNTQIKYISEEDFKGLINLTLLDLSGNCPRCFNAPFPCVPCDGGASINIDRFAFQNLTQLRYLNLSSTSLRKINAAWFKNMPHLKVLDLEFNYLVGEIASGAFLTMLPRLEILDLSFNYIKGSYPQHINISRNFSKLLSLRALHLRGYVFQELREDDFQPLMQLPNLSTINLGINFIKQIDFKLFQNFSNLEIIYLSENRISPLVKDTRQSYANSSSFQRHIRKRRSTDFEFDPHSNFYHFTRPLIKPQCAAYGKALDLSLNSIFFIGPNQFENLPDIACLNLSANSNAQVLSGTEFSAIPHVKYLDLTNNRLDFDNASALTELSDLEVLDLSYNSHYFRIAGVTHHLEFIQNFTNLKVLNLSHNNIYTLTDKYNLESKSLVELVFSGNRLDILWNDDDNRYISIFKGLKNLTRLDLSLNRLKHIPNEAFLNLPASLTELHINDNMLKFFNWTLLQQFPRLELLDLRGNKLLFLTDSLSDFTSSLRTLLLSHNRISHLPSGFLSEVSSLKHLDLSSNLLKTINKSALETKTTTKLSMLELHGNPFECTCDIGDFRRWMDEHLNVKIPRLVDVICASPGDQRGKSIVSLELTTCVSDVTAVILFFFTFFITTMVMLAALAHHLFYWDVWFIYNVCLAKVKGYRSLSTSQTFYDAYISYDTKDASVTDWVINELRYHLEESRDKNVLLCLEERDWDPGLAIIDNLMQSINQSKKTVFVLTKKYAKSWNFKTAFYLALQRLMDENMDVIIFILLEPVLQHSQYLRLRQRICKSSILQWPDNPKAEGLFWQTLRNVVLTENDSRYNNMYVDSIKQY
- ASSAY_NAME: TLR8 inhibition reporter assay (HEK-Blue cells, secreted embryonic alkaline phosphatase reporter)
- CONDITION_PARAMETERS: HEK-Blue cells overexpressing human TLR8, stimulated with R848 15.9 μM; read-out: TLR 8 IC50
PROPERTY_LABEL: IC50

Some solved cases for reference:
{"columns": ["MOLECULE", "MEASURED_VALUE"],
 "data": [
  ["CCOP(=O)(OCC)c1ccc(-c2nc3c(C)cc(C4CCN(C5CCN(CC(C)C)CC5)CC4)cc3n2C)cc1 [Example 421]", "> 50 µM"],
  ["CC(C)N1C2CCC1CC(N1CCC(c3ccc4nc(-c5ccc(S(C)(=O)=O)cc5)[nH]c4c3F)CC1)C2 (single isomer, unassigned) [Example 95]", "> 50 µM"]
]}

Identify measured IC50 corresponding to Cc1cc(C2CCN(C3CC4CCC(C3)N4C3COC3)CC2)cc2c1nc(-c1ccc(S(C)(=O)=O)cc1)n2C (single isomer, unassigned) [Example 159]
> 25 µM

The values you see were collected from patent US12492188B2.
